B1: ETS1 (parent)
chain: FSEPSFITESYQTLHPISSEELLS

Variants of: B1
ASSAY_NAME: protein stability index of a GFP-peptide fusion (GPS, HEK-293T) (PSI 1-6); higher = more stable;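 further: lentivirally expressed fusions sorted by FACS into six bins by GFP to DsRed ratio, PSI derived from sequencing read proportions per bin multiplied by bin number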
DETAILS: c terminus: a fixed tail appended
Label No if protein stability index falls below 2; label Yes in every other case.

The following variants have reported results that may help.
INSERT INTO measurements (mutant, discrete_label) VALUES
  ('H15S', 'No'),
  ('S18Y', 'Yes'),
  ('P4F', 'No'),
  ('L23A', 'Yes'),
  ('S10K', 'Yes'),
  ('E9W', 'Yes'),
  ('L22P', 'Yes'),
  ('L14W', 'Yes'),
  ('S19T', 'Yes'),
  ('I7L', 'Yes');

Does the reported protein stability index for F1G fall at or above the 2 mark?
Yes

Does the reported protein stability index for Y11A fall at or above the 2 mark?
Yes

Does the reported protein stability index for E20A fall at or above the 2 mark?
No

Does the reported protein stability index for S2K fall at or above the 2 mark?
Yes
